- system: binding partner of C5A (XPA23)
- experiment: Biacore
# key: entry, value: fold affinity vs original
property-name: fold affinity vs original

C5A (XPA23) VH G100W (antibody, V domains shown) VH: EVQLLESGGGLVQPGGSLRLSCAASGFTFSKYFMFWVRQAPGKGLEWVSVISPSGGMTRYADSVKGRFTISRDNSKNTLYLQMNSLRAEDTAVYYCARVWYGGNSDYWGQGTLVTVSS VL: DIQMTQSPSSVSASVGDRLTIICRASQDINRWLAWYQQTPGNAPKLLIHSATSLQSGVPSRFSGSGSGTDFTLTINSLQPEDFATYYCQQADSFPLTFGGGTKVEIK | 0.05 fold
C5A (XPA23) VH Y32D (antibody, V domains shown) VH: EVQLLESGGGLVQPGGSLRLSCAASGFTFSKDFMFWVRQAPGKGLEWVSVISPSGGMTRYADSVKGRFTISRDNSKNTLYLQMNSLRAEDTAVYYCARVGYGGNSDYWGQGTLVTVSS VL: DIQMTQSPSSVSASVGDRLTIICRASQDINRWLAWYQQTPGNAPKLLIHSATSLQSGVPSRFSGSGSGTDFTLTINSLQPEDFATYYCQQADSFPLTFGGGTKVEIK | 0.68 fold
C5A (XPA23) VH G100Y (antibody, V domains shown) VH: EVQLLESGGGLVQPGGSLRLSCAASGFTFSKYFMFWVRQAPGKGLEWVSVISPSGGMTRYADSVKGRFTISRDNSKNTLYLQMNSLRAEDTAVYYCARVYYGGNSDYWGQGTLVTVSS VL: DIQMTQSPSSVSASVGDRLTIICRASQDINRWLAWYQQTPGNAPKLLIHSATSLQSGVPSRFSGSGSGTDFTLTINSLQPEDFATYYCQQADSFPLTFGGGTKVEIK | 0.09 fold
C5A (XPA23) VH S54R (antibody, V domains shown) VH: EVQLLESGGGLVQPGGSLRLSCAASGFTFSKYFMFWVRQAPGKGLEWVSVISPRGGMTRYADSVKGRFTISRDNSKNTLYLQMNSLRAEDTAVYYCARVGYGGNSDYWGQGTLVTVSS VL: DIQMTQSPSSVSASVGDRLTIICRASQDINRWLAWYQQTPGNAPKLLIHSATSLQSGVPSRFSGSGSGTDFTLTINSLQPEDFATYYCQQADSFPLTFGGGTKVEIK | 1.43 fold
C5A (XPA23) VH G55Y (antibody, V domains shown) VH: EVQLLESGGGLVQPGGSLRLSCAASGFTFSKYFMFWVRQAPGKGLEWVSVISPSYGMTRYADSVKGRFTISRDNSKNTLYLQMNSLRAEDTAVYYCARVGYGGNSDYWGQGTLVTVSS VL: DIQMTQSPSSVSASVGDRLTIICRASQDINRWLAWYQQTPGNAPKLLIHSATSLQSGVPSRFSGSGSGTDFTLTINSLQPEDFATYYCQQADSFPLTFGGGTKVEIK | 0.08 fold
